- STUDY SYSTEM: MMP-2 (Homo sapiens, UniProt P08253)
- Sequence (P08253 110-660): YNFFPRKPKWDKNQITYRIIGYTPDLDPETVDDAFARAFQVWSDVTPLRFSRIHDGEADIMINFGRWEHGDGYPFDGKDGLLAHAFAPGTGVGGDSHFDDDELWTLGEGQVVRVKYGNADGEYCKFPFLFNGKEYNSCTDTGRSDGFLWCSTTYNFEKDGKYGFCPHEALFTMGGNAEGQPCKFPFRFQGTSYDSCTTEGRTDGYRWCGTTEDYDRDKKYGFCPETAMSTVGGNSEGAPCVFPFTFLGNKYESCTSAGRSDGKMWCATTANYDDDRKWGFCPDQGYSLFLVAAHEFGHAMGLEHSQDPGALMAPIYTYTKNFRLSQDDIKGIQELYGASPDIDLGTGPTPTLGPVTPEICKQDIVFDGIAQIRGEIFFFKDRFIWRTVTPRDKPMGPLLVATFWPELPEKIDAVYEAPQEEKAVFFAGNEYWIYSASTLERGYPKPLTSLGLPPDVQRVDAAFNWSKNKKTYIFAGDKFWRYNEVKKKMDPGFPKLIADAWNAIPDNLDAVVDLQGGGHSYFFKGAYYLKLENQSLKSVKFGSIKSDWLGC
- METHOD DESCRIPTION: MMP inhibition assay, fluorogenic substrate FS-6
- Format: biochemical
- Parameters: purchased supplied by Prof; Gillian Murphy (Department of Oncology, University of Cambridge, UK); host or cells: transfected mouse myeloma cells
- CONDITIONS USED: activated pro-MMP-2 2.9 nM, inhibitor incubated 4 h at 25° C., substrate Mca-Lys-Pro-Leu-Gly-Leu-Dap(Dnp)-Ala-Arg-NH2 2 μM
MEASUREMENT TYPE: IC50 (nM)
Just the number please, in nM, no unit attached.

These solved cases illustrate the format of a correct answer.
CCC(=O)N1CCN(CCOCCON([C@H](CCNC(=O)OCc2ccccc2)C(=O)NO)S(=O)(=O)c2ccc(-c3ccc(OC)cc3)cc2)CC1    47.9
CC[N+]1=C(/C=C/C=C/C=C2\N(CCCCCC(=O)N3CCN(CCOCCON([C@H](CCNC(=O)OCc4ccccc4)C(=O)O)S(=O)(=O)c4ccc(-c5ccc(OC)cc5)cc4)CC3)c3ccc4c(S(=O)(=O)[O-])cc(S(=O)(=O)O)cc4c3C2(C)C)C(C)(C)c2c1ccc1c(S(=O)(=O)O)cc(S(=O)(=O)O)cc21    73.5
CC[N+]1=C(/C=C/C=C/C=C2/N(CCCCCC(=O)NCC[C@H](C(=O)NO)N(OC(C)C)S(=O)(=O)c3ccc(-c4ccc(OC)cc4)cc3)c3ccc4c(S(=O)(=O)O)cc(S(=O)(=O)O)cc4c3C2(C)C)C(C)(C)c2c1ccc1c(S(=O)(=O)[O-])cc(S(=O)(=O)O)cc21    56

// below: IC50 requested for another compound
Asked: Given the entry `CC[N+]1=C(/C=C/C=C/C=C2/N(CCCCCC(=O)N3CCN(CCOCCON([C@H](CCNC(=O)OCc4ccccc4)C(=O)NO)S(=O)(=O)c4ccc(-c5ccc(OC)cc5)cc4)CC3)c3ccc4c(S(=O)(=O)O)cc(S(=O)(=O)O)cc4c3C2(C)C)C(C)(C)c2c1ccc1c(S(=O)(=O)[O-])cc(S(=O)(=O)O)cc21` , report its measured IC50.
Given back: 0.6

Data origin: patent US9480758B2
